- protocol text: small-molecule microarray binders of probe aXIP, primary screen, biochemical, NeuroSMM set, 635/667 nm fluorescence (AID 1119);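 also: probe is the protein aXip251-270 applied at 1 µg/mL to compound-printed slides; binding of probe to printed compounds measured as 667 nm fluorescence plus signal to noise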
- condition context: higher = more signal, called active from +8 up or from −8 down
So basically: composite Z-score at 0.1 or higher? That is 1. Lower than 0.1? That is -1.

INPUT: # bool: composite Z-score of CC(C)N1C(=O)c2ccccc2[C@@H](C(=O)NCCCN(C)C)[C@@H]1c1ccc(CO)cc1 >= 0.1
OUTPUT: -1

INPUT: # bool: composite Z-score of C=CCNC(=O)[C@@H]1[C@H]2C(=O)O[C@H](c3ccccc3)[C@H](c3ccccc3)N2[C@H](c2ccc(O)cc2)[C@@]12C(=O)N(C(=O)OCCOC)c1ccccc12 >= 0.1
OUTPUT: -1

INPUT: # bool: composite Z-score of CC(C)(C)OC(=O)CC[C@]1(C(=O)N2CCCCC2)N=C(c2ccc(OCCCO)cc2)O[C@H]1c1ccccc1N=[N+]=[N-] >= 0.1
OUTPUT: 1

INPUT: # bool: composite Z-score of COC(=O)[C@@]1(Cc2ccccc2)N=C(c2ccc(OCCCO)cc2)O[C@H]1c1ccccc1N=[N+]=[N-] >= 0.1
OUTPUT: 1

INPUT: # bool: composite Z-score of COC(=O)[C@@]1(Cc2ccc(F)cc2)[C@H]2c3cc(C(=O)N(C)C)n(CCc4ccccn4)c3C[C@H]2CN1C(=O)c1ccccc1 >= 0.1
OUTPUT: -1

INPUT: # bool: composite Z-score of CN(C)CCCCNC(=O)[C@H]1C[C@H]2C(=O)N[C@@H](Cc3ccccc3)C(=O)N2[C@H]1c1ccc(O)cc1 >= 0.1
OUTPUT: 1

INPUT: # bool: composite Z-score of O=C(CS)NCCCCCCNC(=O)[C@H]1C[C@H]2C(=O)NCC(=O)N2[C@H]1c1ccc(O)cc1 >= 0.1
OUTPUT: 1

These data points were gathered from PubChem BioAssay.
